# EXPERIMENTAL_TARGET: human α7 neuronal nicotinic receptor (Homo sapiens, UniProt P36544)
# Sequence (P36544 23-502): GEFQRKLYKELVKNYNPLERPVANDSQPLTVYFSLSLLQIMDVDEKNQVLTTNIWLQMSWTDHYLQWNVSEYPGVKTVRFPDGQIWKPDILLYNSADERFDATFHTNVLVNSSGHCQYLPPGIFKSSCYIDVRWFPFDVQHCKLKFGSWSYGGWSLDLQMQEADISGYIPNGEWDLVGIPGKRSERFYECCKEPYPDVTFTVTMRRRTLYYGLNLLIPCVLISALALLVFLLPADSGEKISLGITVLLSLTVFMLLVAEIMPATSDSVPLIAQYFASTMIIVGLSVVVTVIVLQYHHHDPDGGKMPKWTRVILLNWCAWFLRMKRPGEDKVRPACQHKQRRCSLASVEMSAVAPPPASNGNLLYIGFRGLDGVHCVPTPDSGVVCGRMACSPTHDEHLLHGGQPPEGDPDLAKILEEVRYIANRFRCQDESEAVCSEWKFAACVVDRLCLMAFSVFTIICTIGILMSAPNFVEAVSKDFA
# METHOD_NOTES: biochemical
# Type: binding
# CONDITIONS_USED: read-out: % inhibition, N neuronal alpha -BGTX-sensitive (alpha 7) (antagonist radioligand)

MOLECULE: CCN1CCC2CC1(C(O)c1cccnc1)C2 (stereo not shown) [Comp.19a]
UNIT_OF_MEASUREMENT: %
inhibition at 50 pM: 3

MOLECULE: CCN1CCC2CC1(C(=O)c1ccc(Cl)nc1)C2 [Comp.9m]
UNIT_OF_MEASUREMENT: %
inhibition at 50 pM: -1

MOLECULE: NCC12CC(CCN1Cc1ccccn1)C2 [Comp.20]
UNIT_OF_MEASUREMENT: %
inhibition at 50 pM: 12

MOLECULE: OC(c1cccnc1)C12CC(CCN1)C2 (stereo not shown) [Comp.11]
UNIT_OF_MEASUREMENT: %
inhibition at 50 pM: -1

###

# EXPERIMENTAL_TARGET: human muscle-type nicotinic receptor (Homo sapiens, UniProt P02708+P07510+Q07001)
# Sequence (P02708 21-457): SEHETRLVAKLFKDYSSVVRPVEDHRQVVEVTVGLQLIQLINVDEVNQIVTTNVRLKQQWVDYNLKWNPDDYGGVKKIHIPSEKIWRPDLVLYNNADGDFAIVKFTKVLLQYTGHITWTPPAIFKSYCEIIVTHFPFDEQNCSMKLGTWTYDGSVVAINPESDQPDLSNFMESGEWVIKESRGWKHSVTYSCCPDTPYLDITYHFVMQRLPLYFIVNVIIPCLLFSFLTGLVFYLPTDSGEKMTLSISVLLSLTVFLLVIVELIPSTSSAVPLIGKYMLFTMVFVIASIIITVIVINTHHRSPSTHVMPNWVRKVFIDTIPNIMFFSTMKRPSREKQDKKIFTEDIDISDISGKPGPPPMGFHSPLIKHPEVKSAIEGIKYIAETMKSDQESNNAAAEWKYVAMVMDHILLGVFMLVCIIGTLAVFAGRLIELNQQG
# Sequence (P07510 23-517): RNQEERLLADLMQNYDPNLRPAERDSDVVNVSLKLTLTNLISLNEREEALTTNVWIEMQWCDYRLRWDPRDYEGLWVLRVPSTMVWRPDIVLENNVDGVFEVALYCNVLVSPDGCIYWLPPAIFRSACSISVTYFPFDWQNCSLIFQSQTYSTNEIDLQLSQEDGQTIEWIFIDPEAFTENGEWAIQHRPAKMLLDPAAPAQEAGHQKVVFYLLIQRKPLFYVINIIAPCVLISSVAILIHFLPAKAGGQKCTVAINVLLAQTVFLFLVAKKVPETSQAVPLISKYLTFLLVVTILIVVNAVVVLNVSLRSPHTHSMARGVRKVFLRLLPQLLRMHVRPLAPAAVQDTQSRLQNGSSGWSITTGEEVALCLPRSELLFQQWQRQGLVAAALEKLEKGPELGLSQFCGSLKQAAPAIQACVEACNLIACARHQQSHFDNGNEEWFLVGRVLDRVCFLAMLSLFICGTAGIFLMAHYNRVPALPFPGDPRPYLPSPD
# Sequence (P11230 24-501, further chain): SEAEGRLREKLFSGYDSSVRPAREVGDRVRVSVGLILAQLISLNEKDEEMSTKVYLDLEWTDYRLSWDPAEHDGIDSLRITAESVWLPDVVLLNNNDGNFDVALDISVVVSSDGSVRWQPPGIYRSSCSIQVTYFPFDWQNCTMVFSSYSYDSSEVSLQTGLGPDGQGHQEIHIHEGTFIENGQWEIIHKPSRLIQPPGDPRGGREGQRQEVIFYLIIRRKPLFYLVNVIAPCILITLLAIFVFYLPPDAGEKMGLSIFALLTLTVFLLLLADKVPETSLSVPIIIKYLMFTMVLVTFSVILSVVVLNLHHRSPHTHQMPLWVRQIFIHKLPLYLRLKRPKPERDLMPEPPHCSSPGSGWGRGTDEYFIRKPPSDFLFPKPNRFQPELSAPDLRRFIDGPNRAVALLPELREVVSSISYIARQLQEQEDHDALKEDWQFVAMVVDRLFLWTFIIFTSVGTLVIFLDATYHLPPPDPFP
# Sequence (Q07001 22-517): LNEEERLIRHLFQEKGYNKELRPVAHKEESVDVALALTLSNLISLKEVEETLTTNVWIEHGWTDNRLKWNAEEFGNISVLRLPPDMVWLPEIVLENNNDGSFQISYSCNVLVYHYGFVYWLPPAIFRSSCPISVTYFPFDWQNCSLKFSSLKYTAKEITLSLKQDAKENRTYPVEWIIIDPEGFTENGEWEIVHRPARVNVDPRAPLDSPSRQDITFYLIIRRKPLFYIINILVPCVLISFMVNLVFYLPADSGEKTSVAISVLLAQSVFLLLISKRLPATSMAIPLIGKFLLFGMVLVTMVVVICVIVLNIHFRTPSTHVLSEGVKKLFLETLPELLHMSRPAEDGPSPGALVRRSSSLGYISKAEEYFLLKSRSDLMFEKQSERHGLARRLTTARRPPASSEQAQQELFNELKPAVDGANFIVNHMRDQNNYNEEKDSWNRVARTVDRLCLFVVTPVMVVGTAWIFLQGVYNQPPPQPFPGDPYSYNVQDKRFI
# METHOD_NOTES: biochemical
# Assay type: binding
# CONDITIONS_USED: read-out: % inhibition, N muscle-type (h) (antagonist radioligand)

COMPOUND: CCN1CCC2CC1(C(=O)c1ccc(Cl)nc1)C2
EXPERIMENTAL_TARGET: human muscle-type nicotinic receptor (Homo sapiens, UniProt P02708+P07510+Q07001)
inhibition at 0.0005 µM: -8%

COMPOUND: NCC12CC(CCN1Cc1ccccn1)C2
EXPERIMENTAL_TARGET: human muscle-type nicotinic receptor (Homo sapiens, UniProt P02708+P07510+Q07001)
inhibition at 0.0005 µM: 32%

COMPOUND: OC(c1cccnc1)C12CC(CCN1)C2 (stereo not shown)
EXPERIMENTAL_TARGET: human muscle-type nicotinic receptor (Homo sapiens, UniProt P02708+P07510+Q07001)
inhibition at 0.0005 µM: 17%

COMPOUND: CCN1CCC2CC1(C(O)c1cccnc1)C2 (stereo not shown) [Comp.19a]
EXPERIMENTAL_TARGET: human muscle-type nicotinic receptor (Homo sapiens, UniProt P02708+P07510+Q07001)
inhibition at 0.0005 µM: 33%

All values here come from patent EP2496579B1.
